Origin of values: PubChem BioAssay (NCI)

Test system: NCI-H460 lung
Test: NCI tumour cell line growth inhibition, 48 h
Readout Type: TGI (µM)

                                   compound  relational_operator  reported_measurement
0  COc1ccc(/C=C2\C(=O)N(C3OC(COC(C)=O)C(OC(C)=O)C(OC(C)=O)C3OC(C)=O)c3ccccc3N=C2N)cc1 (stereo not given)                    =                  75.8
1  COC(=O)[C@@]1(C)CC[C@]2(C)CC[C@]3(C)C4=CC=C5C(=CC(=O)C(O)=C5C)[C@]4(C)[C@@H](O)C[C@@]3(C)[C@@H]2C1                    =                  25.5
2          CC1=C(C)C(=O)c2c(cc3ccccn23)C1=O                    =                  31.5
3   CCC1NC(=O)C1NC(=O)OC (stereo not given)                    >                   100
4  CC1=C(C(=O)O)N2C(=O)[C@@H](NC(=O)C(c3ccc(O)cc3)N3CSC(=S)N(C(C)C)C3)C2SC1 (stereo not given in full)                    >                   100
